# assayTarget: 5-hydroxytryptamine receptor 2A (Homo sapiens); also: assay procedure not described here
# Sequence (P28223 whole entry): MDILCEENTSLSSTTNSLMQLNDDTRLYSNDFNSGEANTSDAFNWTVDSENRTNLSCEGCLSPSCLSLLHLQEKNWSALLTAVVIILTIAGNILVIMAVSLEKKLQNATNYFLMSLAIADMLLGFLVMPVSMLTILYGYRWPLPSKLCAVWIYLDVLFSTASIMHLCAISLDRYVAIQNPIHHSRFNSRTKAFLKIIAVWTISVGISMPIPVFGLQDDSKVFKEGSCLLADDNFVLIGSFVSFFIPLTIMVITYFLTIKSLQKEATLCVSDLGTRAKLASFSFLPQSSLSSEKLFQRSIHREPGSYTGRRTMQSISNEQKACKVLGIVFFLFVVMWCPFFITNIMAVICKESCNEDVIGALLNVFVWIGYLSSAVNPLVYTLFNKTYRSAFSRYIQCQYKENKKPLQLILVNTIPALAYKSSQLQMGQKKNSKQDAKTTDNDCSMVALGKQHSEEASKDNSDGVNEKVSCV
# Format: functional, cell-based
measuredMetric: AC50

The value of AC50 measured for the compound O=C(O)/C=C/c1ccc(Cn2ccnc2)cc1 turned out to be > 30 µM

The value of AC50 measured for the compound CN1CCC(=C2c3ccccc3CCc3sccc32)CC1 turned out to be 0.0379 µM

The value of AC50 measured for the compound CCCC(=O)O[C@]1(C(=O)CO)CC[C@H]2[C@@H]3CCC4=CC(=O)CC[C@]4(C)[C@H]3[C@@H](O)C[C@@]21C [HYDROCORTISONE BUTYRATE] turned out to be > 10 µM

The value of AC50 measured for the compound CC(CC(c1ccccc1)c1ccccc1)NC(C)(C)C (centres undefined) turned out to be > 30 µM

The value of AC50 measured for the compound C=CCC1(CC(C)C)C(=O)NC(=O)NC1=O turned out to be > 10 µM

The value of AC50 measured for the compound C/C(O)=C(\C#N)C(=O)Nc1ccc(C(F)(F)F)cc1 [TERIFLUNOMIDE] turned out to be 28 µM

The value of AC50 measured for the compound COc1cc2c(N)nc(N3CCN(C(=O)OCC(C)(C)O)CC3)nc2c(OC)c1OC turned out to be > 30 µM

The value of AC50 measured for the compound CC(=O)O[C@H]1CC[C@@]2(C)C(=CC[C@@H]3[C@@H]2CC[C@]2(C)C(c4cccnc4)=CC[C@@H]32)C1 [ABIRATERONE ACETATE] turned out to be > 30 µM

The value of AC50 measured for the compound O=C(O[C@H]1C[C@H]2CC[C@@H](C1)[N+]21CCCC1)C(O)(c1ccccc1)c1ccccc1 turned out to be > 30 µM

###

Would you mind telling me the reported AC50 of each entry?

Field AC50 (Sodium-dependent noradrenaline transporter (Homo sapiens)), entry COc1ccc(C(=O)Nc2ccccc2CCC2CCCCN2C)cc1 (configuration not stated) [ENCAINIDE] : > 10 µM

Field AC50 (Sodium-dependent noradrenaline transporter (Homo sapiens)), entry C[C@H]1CNCCc2ccc(Cl)cc21 : 14 µM

Field AC50 (Sodium-dependent noradrenaline transporter (Homo sapiens)), entry C=CCC1(CC(C)C)C(=O)NC(=O)NC1=O : > 10 µM

Field AC50 (Sodium-dependent noradrenaline transporter (Homo sapiens)), entry COc1ccc2c3c1O[C@H]1[C@@H](O)C=C[C@H]4[C@@H](C2)N(C)CC[C@@]341 : > 30 µM

Field AC50 (Sodium-dependent noradrenaline transporter (Homo sapiens)), entry O=C(O)CCCCCCCC(=O)O : > 10 µM

Field AC50 (Sodium-dependent noradrenaline transporter (Homo sapiens)), entry CC1(C)NC(=O)N(c2ccc([N+](=O)[O-])c(C(F)(F)F)c2)C1=O [NILUTAMIDE] : > 30 µM

Field AC50 (Sodium-dependent noradrenaline transporter (Homo sapiens)), entry Nc1nc(NC2CC2)c2ncn([C@H]3C=C[C@@H](CO)C3)c2n1 : > 30 µM

Field AC50 (Sodium-dependent noradrenaline transporter (Homo sapiens)), entry CCCN(CCC)C(=O)C(CCC(=O)O)NC(=O)c1ccccc1 (configuration not stated) [PROGLUMIDE] : > 30 µM

Field AC50 (Sodium-dependent noradrenaline transporter (Homo sapiens)), entry CC[C@H]1OC(=O)[C@H](C)[C@@H](O[C@H]2C[C@@](C)(OC)[C@@H](O)[C@H](C)O2)[C@H](C)[C@@H](O[C@@H]2O[C@H](C)C[C@H](N(C)C)[C@H]2O)[C@](C)(O)C[C@@H](C)CN(C)[C@H](C)[C@@H](O)[C@]1(C)O : > 10 µM

Field AC50 (Sodium-dependent noradrenaline transporter (Homo sapiens)), entry COc1cccc(C2(O)CCCCC2CN(C)C)c1 (configuration not stated) : > 10 µM

Field AC50 (Sodium-dependent noradrenaline transporter (Homo sapiens)), entry Cc1ccc(-n2nccn2)c(C(=O)N2CCN(c3nc4cc(Cl)ccc4o3)CC[C@H]2C)c1 : > 30 µM

Field AC50 (Sodium-dependent noradrenaline transporter (Homo sapiens)), entry CNC(C)CCC=C(C)C (configuration not stated) : > 30 µM

Field AC50 (Sodium-dependent noradrenaline transporter (Homo sapiens)), entry CN(C)CCC=C1c2ccccc2C(C)(C)c2ccccc21 : 1.05 µM

Field AC50 (Sodium-dependent noradrenaline transporter (Homo sapiens)), entry Fc1ccc(C(c2ccccc2)(c2ccccc2F)n2ccnc2)cc1 (configuration not stated) : > 30 µM

Field AC50 (Sodium-dependent noradrenaline transporter (Homo sapiens)), entry CO[C@@H]1[C@@H](O[C@@H]2O[C@H](C)[C@@H](O[C@H]3C[C@@](C)(O)[C@@H](OC(=O)CC(C)C)[C@H](C)O3)[C@H](N(C)C)[C@H]2O)[C@@H](CC=O)C[C@@H](C)[C@@H](O)/C=C/C=C/C[C@@H](C)OC(=O)C[C@H]1OC(C)=O : > 10 µM

Field AC50 (Sodium-dependent noradrenaline transporter (Homo sapiens)), entry CCCCN1C[C@H](O)[C@@H](O)[C@H](O)[C@H]1CO : > 30 µM

Field AC50 (Sodium-dependent noradrenaline transporter (Homo sapiens)), entry Nc1ccn([C@H]2CC[C@@H](CO)O2)c(=O)n1 : > 10 µM

###

Would you mind telling me the reported AC50 of each entry?

Field AC50 (Gamma-aminobutyric acid receptor subunit alpha-1 (Rattus norvegicus, UniProt P62813)), entry Cc1nnc2n1-c1ccc(Cl)cc1C(c1ccccc1Cl)=NC2 : > 10 µM

Field AC50 (Gamma-aminobutyric acid receptor subunit alpha-1 (Rattus norvegicus, UniProt P62813)), entry O=[N+]([O-])c1cn2c(n1)OC[C@@H](OCc1ccc(OC(F)(F)F)cc1)C2 : > 10 µM

Field AC50 (Gamma-aminobutyric acid receptor subunit alpha-1 (Rattus norvegicus, UniProt P62813)), entry N#Cc1ccc([C@H]2CCc3cncn32)c(F)c1 : > 10 µM

Field AC50 (Gamma-aminobutyric acid receptor subunit alpha-1 (Rattus norvegicus, UniProt P62813)), entry CCC1(CC)C(=O)NCC(C)C1=O (stereo not drawn) : > 30 µM

Field AC50 (Gamma-aminobutyric acid receptor subunit alpha-1 (Rattus norvegicus, UniProt P62813)), entry Cc1cccc(Nc2ccccc2C(=O)O)c1C : > 10 µM

Field AC50 (Gamma-aminobutyric acid receptor subunit alpha-1 (Rattus norvegicus, UniProt P62813)), entry CC[C@H]1[C@@H](O)[C@@H]2[C@H](CC[C@]3(C)[C@@H]([C@H](C)CCC(=O)O)CC[C@@H]23)[C@@]2(C)CC[C@@H](O)C[C@@H]12 : > 30 µM

Field AC50 (Gamma-aminobutyric acid receptor subunit alpha-1 (Rattus norvegicus, UniProt P62813)), entry CC(C)(C)NCC(O)COc1cccc2c1CCC(=O)N2 (stereo not drawn) : > 10 µM

Field AC50 (Gamma-aminobutyric acid receptor subunit alpha-1 (Rattus norvegicus, UniProt P62813)), entry C[C@]12CCC(=O)C=C1CC[C@@H]1[C@@H]2[C@@H](O)C[C@@]2(C)[C@H]1CC[C@]2(O)C(=O)CO [HYDROCORTISONE] : > 10 µM

###

# assayTarget: Sodium-dependent dopamine transporter (Homo sapiens); also: assay procedure not described here
# Sequence (Q01959 whole entry): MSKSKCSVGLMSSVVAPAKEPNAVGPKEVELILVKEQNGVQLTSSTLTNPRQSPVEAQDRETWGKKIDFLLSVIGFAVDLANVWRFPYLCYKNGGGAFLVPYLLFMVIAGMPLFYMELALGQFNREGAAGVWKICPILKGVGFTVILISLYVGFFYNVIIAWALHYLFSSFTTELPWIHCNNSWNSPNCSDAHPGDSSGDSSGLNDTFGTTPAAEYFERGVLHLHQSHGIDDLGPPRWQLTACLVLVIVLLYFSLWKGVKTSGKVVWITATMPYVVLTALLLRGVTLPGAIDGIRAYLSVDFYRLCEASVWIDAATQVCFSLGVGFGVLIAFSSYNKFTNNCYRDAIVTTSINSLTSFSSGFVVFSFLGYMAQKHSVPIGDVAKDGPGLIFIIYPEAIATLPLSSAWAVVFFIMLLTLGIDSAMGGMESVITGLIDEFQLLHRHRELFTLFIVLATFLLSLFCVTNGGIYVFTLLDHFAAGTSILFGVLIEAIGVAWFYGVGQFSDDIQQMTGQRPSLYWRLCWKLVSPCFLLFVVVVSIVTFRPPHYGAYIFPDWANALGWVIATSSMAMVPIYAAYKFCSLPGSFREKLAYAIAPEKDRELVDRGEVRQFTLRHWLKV
measuredMetric: AC50

Field AC50 (Sodium-dependent dopamine transporter (Homo sapiens)), entry CCC(C)n1ncn(-c2ccc(N3CCN(c4ccc(OCC5COC(Cn6cncn6)(c6ccc(Cl)cc6Cl)O5)cc4)CC3)cc2)c1=O (stereo not drawn) : > 30 µM

Field AC50 (Sodium-dependent dopamine transporter (Homo sapiens)), entry Cc1nnc2n1-c1ccc(Cl)cc1C(c1ccccc1Cl)=NC2 : > 30 µM

Field AC50 (Sodium-dependent dopamine transporter (Homo sapiens)), entry CCOc1ccccc1OCC1CNCCO1 (stereo not drawn) : > 10 µM

Field AC50 (Sodium-dependent dopamine transporter (Homo sapiens)), entry CNC1Cc2ccccc2N(C)c2ccccc21 (stereo not drawn) : > 30 µM

Field AC50 (Sodium-dependent dopamine transporter (Homo sapiens)), entry C=CCN1C[C@H](C(=O)N(CCCN(C)C)C(=O)NCC)C[C@@H]2c3cccc4[nH]cc(c34)C[C@H]21 : 5.4 µM

Field AC50 (Sodium-dependent dopamine transporter (Homo sapiens)), entry NC(=O)CN1CC(O)CC1=O (stereo not drawn) : > 30 µM

Field AC50 (Sodium-dependent dopamine transporter (Homo sapiens)), entry COc1ccccc1N1CCN(CC(O)COc2cccc3ccccc23)CC1 (stereo not drawn) : 5.5 µM

Field AC50 (Sodium-dependent dopamine transporter (Homo sapiens)), entry Cc1cn([C@H]2C=C[C@@H](CO)O2)c(=O)[nH]c1=O : > 10 µM

Field AC50 (Sodium-dependent dopamine transporter (Homo sapiens)), entry CC=CC(=O)N(CC)c1ccccc1C : > 10 µM

Field AC50 (Sodium-dependent dopamine transporter (Homo sapiens)), entry O=C1C(O)=C([C@H]2CC[C@H](c3ccc(Cl)cc3)CC2)C(=O)c2ccccc21 : > 30 µM

Field AC50 (Sodium-dependent dopamine transporter (Homo sapiens)), entry CC(=O)OCC(=O)[C@@]12N=C(C)O[C@@H]1C[C@H]1[C@@H]3CCC4=CC(=O)C=C[C@]4(C)[C@H]3[C@@H](O)C[C@@]12C : > 30 µM

Field AC50 (Sodium-dependent dopamine transporter (Homo sapiens)), entry c1ccc([C@H]2CN3CCSC3=N2)cc1 : > 30 µM

Field AC50 (Sodium-dependent dopamine transporter (Homo sapiens)), entry CCN1CCN(C(=O)N[C@@H](C(=O)N[C@@H]2C(=O)N3C(C(=O)O)=C(CSc4nnnn4C)CS[C@H]23)c2ccc(O)cc2)C(=O)C1=O : > 30 µM

Field AC50 (Sodium-dependent dopamine transporter (Homo sapiens)), entry COC(=O)C1=C(C)NC(C)=C(C(=O)OC(C)(C)CN(C)CCC(c2ccccc2)c2ccccc2)C1c1cccc([N+](=O)[O-])c1 (stereo not drawn) : 35.7 µM

Field AC50 (Sodium-dependent dopamine transporter (Homo sapiens)), entry Cc1nc([N+](=O)[O-])cn1-c1ccc([N+](=O)[O-])cc1 : > 30 µM

Field AC50 (Sodium-dependent dopamine transporter (Homo sapiens)), entry CNS(=O)(=O)Cc1ccc2[nH]cc(CCN(C)C)c2c1 : > 10 µM

Field AC50 (Sodium-dependent dopamine transporter (Homo sapiens)), entry N[C@@H]1[C@H]2CN(c3nc4c(cc3F)c(=O)c(C(=O)O)cn4-c3ccc(F)cc3F)C[C@@H]12 : > 30 µM

Field AC50 (Sodium-dependent dopamine transporter (Homo sapiens)), entry CN(C)CCC=C1c2ccccc2C(C)(C)c2ccccc21 : > 30 µM

Source of measurements: ChEMBL document CHEMBL5291721
